Entries and their ZEAMX damage score (0-5) values follow.
- System: ZEAMX = Zea mays
- experimentalDetails: Post-emergence herbicidal activity, glasshouse pot test
- Format: in vivo
- Set-up: key: 5=total damage to plant; 0=no damage to plant
- conditionContext: comparison of enantiomers, 62.5 g/Ha

{"compound": "CCO[C@@H]1C(O)N(c2cc(C(C)(C)C)on2)C(=O)N1C (single isomer, unassigned)", "ZEAMX damage score (0-5)": 5}
{"compound": "COC[C@H]1C(O)N(c2cc(C(C)(C)C)on2)C(=O)N1C (stereo partly drawn) [A4 S-enantiomer, reference compound]", "ZEAMX damage score (0-5)": 0}
{"compound": "CCO[C@@H]1C(O)N(c2cc(C(C)(C)F)on2)C(=O)N1C (stereo partly drawn)", "ZEAMX damage score (0-5)": 5}
{"compound": "CO[C@H]1C(O)N(c2cc(C(C)(C)C)on2)C(=O)N1C (stereo partly drawn) [A1 S-enantiomer, reference compound]", "ZEAMX damage score (0-5)": 1}
{"compound": "CO[C@@H]1C(O)N(c2cc(C(C)(C)C)on2)C(=O)N1C (stereo partly drawn)", "ZEAMX damage score (0-5)": 5}
{"compound": "CCO[C@H]1C(O)N(c2cc(C(C)(C)F)on2)C(=O)N1C (stereo partly drawn) [A5 S-enantiomer, reference compound]", "ZEAMX damage score (0-5)": 0}

----------
- Tested on: ZEAMX = Zea mays
- experimentalDetails: Pre-emergence herbicidal activity, glasshouse pot test
- Type: in vivo
- conditionContext: 1000 g/Ha, evaluated after 13 days
- Description: Seeds of a variety of test species were sown in standard soil in pots. […] After 13 days, the test was evaluated (5=total damage to plant; 0=no damage to plant). […]
Property: ZEAMX damage score (0-5); scope: individual molecules
propertyMeasured: ZEAMX damage score (0-5)

{"molecule": "COC[C@@H]1C(O)N(c2cc(C(C)(C)C)on2)C(=O)N1C (stereo partly shown) [Example A4]", "targetDesc": "ZEAMX = Zea mays", "propertyMeasured": "ZEAMX damage score (0-5)", "endpointValue": 3}
{"molecule": "CO[C@@H]1C(O)N(c2cc(C(C)(C)C)on2)C(=O)N1C (stereo partly shown) [Example A1]", "targetDesc": "ZEAMX = Zea mays", "propertyMeasured": "ZEAMX damage score (0-5)", "endpointValue": 3}
{"molecule": "CCO[C@@H]1C(O)N(c2cc(C(C)(C)C)on2)C(=O)N1C (single isomer, unassigned) [Example A2]", "targetDesc": "ZEAMX = Zea mays", "propertyMeasured": "ZEAMX damage score (0-5)", "endpointValue": 2}
{"molecule": "CCO[C@@H]1C(O)N(c2cc(C(C)(C)F)on2)C(=O)N1C (stereo partly shown) [Example A5]", "targetDesc": "ZEAMX = Zea mays", "propertyMeasured": "ZEAMX damage score (0-5)", "endpointValue": 3}
